B1: library; numbered along this chain (parent)
chain: MRKPRAAVGSGHRKQAASQEGRQKHAKNNSQAKPSACDGLARQPEEVVLQASVSSYHLFRDVAEVTAFRGSLLSWYDQEKRDLPWRRRAEDEMDLDRRAYAVWVSEVMLQQTQVATVINYYTGWMQKWPTLQDLASASLEEVNQLWAGLGYYSRGRRLQEGARKVVEELGGHMPRTAETLQQLLPGVGRYTAGAIASIAFGQATGVVDGNVARVLCRVRAIGADPSSTLVSQQLWGLAQQLVDPARPGDFNQAAMELGATVCTPQRPLCSQCPVESLCRARQRVEQEQLLASGSLSGSPDVEECAPNTGQCHLCLPPSEPWDQTLGVVNFPRKASRKPPREESSATCVLEQPGALGAQILLVQRPNSGLLAGLWEFPSVTWEPSEQLQRKALLQELQRWAGPLPATHLRHLGEVVHTFSHIKLTYQVYGLALEGQTPVTTVPPGARWLTQEEFHTAAVSTAMKKVFRVYQGQQPGTCMGSKRSQVSSPCSRKKPRMGQQVLDNFFRSHISTDAHSLNSAAQ

variants of: B1; assay: 8OG:A repair function score (normalized; synonymous = 0, nonsense = -1) (normalized log-likelihood score); higher = more repair activity (WT-like); settings: with 8OG:A DNA repair reporter (GFP) in HEK-293 MUTYH KO cells;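 note: cells sorted at 72 h after reporter transfection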
Metric: 8OG:A repair function score

mutant_label=C477S experimental_result=-0.00994
mutant_label=Q159Y experimental_result=0.116
mutant_label=A431E experimental_result=0.346
mutant_label=A519I experimental_result=-0.0243
mutant_label=E395H experimental_result=-0.214
mutant_label=F68Q experimental_result=-0.906
mutant_label=S153P experimental_result=0.0253
mutant_label=Q386T experimental_result=-0.191
mutant_label=K337I experimental_result=-0.106
mutant_label=A513F experimental_result=-0.00203
mutant_label=V242C experimental_result=-0.39
